System: PC-3 prostate
Experiment: NCI tumour cell line growth inhibition, 48 h
TGI for assorted compounds

Consider the following illustrative entries.
CC1(CCCC2(C)CCNC2=O)OCCO1 (stereo not drawn) ... > 10 µM
NNC(=O)CC(=O)Nc1ccc(Cl)cc1 ... > 100 µM
COc1c2occc2c(OC)c2c(=O)c(S(=O)(=O)NC(=O)Nc3ccc(Cl)cc3)coc12 ... > 10 µM
CC(=O)O[C@@H]1C=CC(=O)C2(CC(=O)O[C@@H]2/C=C(\C)CCC=C(C)C)C1 (stereo partly drawn) ... 1.19 µM
CCOC(=O)C(=[N+]=[N-])C(=O)C[N+]12CCN(CC1)CC2 ... > 100 µM
C1=C[C@@H]2c3ccc4cnccc4c3NC[C@@H]2C1 ... > 100 µM

Suppose we examine the compound Cc1ccc(S(=O)(=O)NC(=O)NC(Cc2c[nH]c3ccccc23)C(=O)O)cc1 (stereo not drawn) ; what TGI value has been reported?
> 100 µM

Bench note: what TGI did O=C(O)CC(NC(=O)Nc1ccc([N+](=O)[O-])cc1)C(=O)Nc1ccc([N+](=O)[O-])cc1 (stereo not drawn) show?
> 100 µM

---

Test system: HOP-62 NSCLC
Assay: NCI tumour cell line growth inhibition, 48 h
PARAMETER: TGI

Fill blank: measured TGI of the molecule Oc1nc(N/N=C/c2c[nH]c3ccccc23)[nH]c1/C=C1\C=Nc2ccccc21 is ____.
80.9 µM

Param item = COc1ccc(C2SC(N)=Nc3c2c(C)nn3C(=O)c2ccncc2)cc1 (centres undefined) ; retrieve measured TGI.
> 100 µM

---

Each entry below carries its reported GI50.
Tested on: OVCAR-3 ovarian
Test: NCI tumour cell line growth inhibition, 48 h

Before answering, review these 3 worked examples.
O=P(O)(O)OC1C(OP(=O)(O)O)C(OP(=O)(O)O)C(OP(=O)(O)O)C(OP(=O)(O)O)C1OP(=O)(O)O (centres undefined) ... > 2000 µM
COc1cc(-c2cc(-c3ccc(N(C)C)cc3)nc(N3CCC(O)CC3)c2C#N)cc(OC)c1OC ... 1.46 µM
CCN1CCN(C(=O)[C@]23CC[C@@H](C)[C@H](C)[C@@H]2C2=CC[C@@H]4[C@@]5(C)C/C(=C/c6cccnc6)C(=O)C(C)(C)[C@@H]5CC[C@@]4(C)[C@]2(C)CC3)CC1 ... 1.65 µM

Would you kindly share the measured GI50 for Cc1c(CNc2ccc(Cl)c(C(=O)NC(CC(=O)O)C(=O)O)c2)ccc2nc(N)nc(N)c12 (centres undefined) ?
16.8 µM

---

Test system: SF-268 CNS
Test: NCI tumour cell line growth inhibition, 48 h
Listed below: TGI values for each entry.

// worked examples, TGI included
CCCCNC(=S)Nn1c(-c2ccccc2)nc2ccccc2c1=O ... > 100 µM
CCc1ccc(Cc2ccc(CC)c(NC(=O)C(=O)Cc3nc4ccccc4nc3C)c2CC)c(CC)c1NC(=O)C(=O)Cc1nc2ccccc2nc1C ... > 100 µM

Any idea what TGI came out for C=C1C(=O)OC(CCCCCCCC)C1C(=O)O (centres undefined) on SF-268 CNS?
39.6 µM

Give TGI (SF-268 CNS) of the following compound: COc1cc2c(cc1OC)C1CN3C(=O)CCC3C(O)C1c1cc(OC)c(OC)cc1-2 (centres undefined)
> 100 µM

Can you look up TGI on SF-268 CNS for CC1(C)C2CCC1(CS(=O)(=O)Nc1ccccc1)C(=O)C2 (centres undefined) ?
> 100 µM

Observed TGI on SF-268 CNS for Cc1nc2c(cnn2-c2ccnc3c(C(F)(F)F)cccc23)c(=O)o1 , please.
> 100 µM

Which measured TGI belongs to COc1ccccc1/C=C1\COc2ccc(O)c(O)c2C1=O , tested on SF-268 CNS?
8.42 µM

Requested read-out TGI, target or system SF-268 CNS, entry FC(F)(F)c1ccc2nc(-c3nc(-c4ccccc4)n4ccccc34)[nH]c2c1
> 100 µM

Field: TGI (SF-268 CNS). Entry: C=CCCc1cc(OC)ccc1CN(C)C(C)(C)CO
> 100 µM

Please tell me: TGI of CCOP1(=O)OCC2OC(n3cnc4c(N)ncnc43)C(O)C2O1 (centres undefined) , system SF-268 CNS?
> 100 µM

Short answer please: TGI, SF-268 CNS, entry CCCOC(=O)C1CCC(=O)N1C(=O)C(Cl)Cl (centres undefined)
> 100 µM

Form: Entry = O=c1[nH]nc(-c2ccccc2)c(-c2ccccc2)c1-n1nc(-c2ccccc2)c2ccccc2c1=O | System = SF-268 CNS | TGI = ____
> 100 µM

---

Test system: KM12 colon
Assay: NCI tumour cell line growth inhibition, 48 h
PARAMETER: TGI

Previously resolved entries follow.
CC(C)(C)C#C[P+](c1ccccc1)(c1ccccc1)c1ccccc1 ... 0.687 µM
O=P(O)(O)OC1C(OP(=O)(O)O)C(OP(=O)(O)O)C(OP(=O)(O)O)C(OP(=O)(O)O)C1OP(=O)(O)O (centres undefined) ... > 2000 µM
Cc1cn(C2CC(O)C(CO)C2C)c(=O)[nH]c1=O (centres undefined) ... > 100 µM
Clc1ccc(Cl)c(N/N=C\c2c[nH]c3ccccc23)c1 ... 26.3 µM
NC(=O)C/C=C/CC(N)=O ... > 100 µM
CCOC(=O)c1c(SC(=O)c2cc(OC)c(OC)c(OC)c2)n(-c2ccccc2)c(=S)n(-c2ccccc2)c1=O ... > 100 µM
CC1(C)O[C@H](C(=O)O)[C@@H](C(=O)O)O1 ... > 100 µM
CCN1CCC(C(=O)Nc2n[nH]c3nnc(-c4cccc(F)c4F)cc23)CC1 ... > 18.2 µM

Consider the record given below.
Field request: TGI | item: Cc1cc(O)c(C(C)C)cc1NC(=O)Nc1cccc2ccccc12
38.8 µM

---

Items are presented alongside their recorded TGI.
System: SK-MEL-28 melanoma
Assay: NCI tumour cell line growth inhibition, 48 h

C=CCNC1=C2C[C@@H](C)C[C@@H](OC)C(OC(=O)CCCN(C)C)[C@H](C)/C=C(\C)[C@@H](OC(N)=O)[C@H](OC)/C=C\C=C(/C)C(=O)NC(=CC1=O)C2=O (stereo partly drawn) ... 27.4 µM
Brc1ccc2c(-c3nc(-c4c[nH]c5ccccc45)cs3)c[nH]c2c1 ... > 93.6 µM
O=C1COC(c2ccccc2O)=NN1CCCN1CCCC1 ... > 100 µM
COc1cc2c(cc1OCCCC(=O)Nc1cc(C(=O)Nc3cc(C(=O)Nc4cc(C(=O)NCCCN(C)C)n(C)c4)n(C)c3)n(C)c1)N=C[C@@H]1CCCN1C2=O ... 4.66 µM
Cc1cc(Cl)n2c(nc3ccccc32)c1C#N ... 6.34 µM
CC[C@]1(O)C[C@@H]2CN(Cc3c([nH]c4ccccc34)[C@@](C(=O)OC)(c3cc4c(cc3OC)N(C)[C@H]3[C@@](O)(C(=O)OC)[C@H](OC(C)=O)[C@]5(CC)[C@@H]6C[C@@H]6CN6CC[C@]43[C@@H]65)C2)C1 ... > 4.38 µM

Value lookup for TGI; key = O=P(O)(O)OC1C(OP(=O)(O)O)C(OP(=O)(O)O)C(OP(=O)(O)O)C(OP(=O)(O)O)C1OP(=O)(O)O (stereo not drawn)
> 2000 µM

Consider the molecule shown here: Cc1cn(C2CC(O)C(CO)C2C)c(=O)[nH]c1=O (stereo not drawn) What is its recorded TGI?
> 100 µM

Consider the molecule Cc1ncc(C(=O)Nc2ccc(CN3CCN(C)CC3)c(C(F)(F)F)c2)cc1C#Cc1c(N)ncc2ccc(C#N)cc12 and give its measured TGI.
1.91 µM

If you can, please state the reported TGI value of C=Nc1ccc([N+](=O)[O-])cc1 .
> 100 µM

Value lookup for TGI; key = Cn1cc(-c2ccc3cc(-c4ccc(CC(=O)Nc5cc(C(C)(C)C)nn5C)cc4)cnc3c2)cn1
> 100 µM

Suppose we examine the molecule COc1cc[c]([Hg][Cl])cc1 ; what TGI value has been reported?
3.36 µM

I would be grateful if you could share the reported TGI for CCc1nc(N)nc(N)c1-c1ccc(Cl)cc1 .
> 100 µM

Which value of TGI has been reported for COC1CC(OC2OC(CO)C(O)C(O)C2O)/C(=C\C#N)C(O)C1OC (stereo not drawn) in the records?
> 100 µM

Query (molecule): COCCNC(=O)C1C(=O)N(CCOC)C(=O)/C1=N/N (stereo not drawn) ; field requested: TGI
> 100 µM

Given the entry C=CCCc1cc(OC)ccc1CN(C)C(C)(C)CO , report its measured TGI.
> 100 µM

Quick check: TGI of N#Cc1c(N)nn(C(=O)c2ccc(NC(=O)c3ccccn3)cc2)c1-c1ccc(Cl)cc1 ?
> 100 µM

Given the entry COc1ccc2oc(S(=O)(=O)N3CC(CCl)c4ccc([N+](=O)[O-])cc43)cc2c1 (stereo not drawn) , report its measured TGI.
> 61.6 µM
